Assignment: determine reported pKi for the given molecules.
# Tgt: Delta-type opioid receptor (Mus musculus, UniProt P32300)
# Assay comment: Displacement of [3H]DPDPE from delta opioid receptor in CD1 mouse brain membranes after 1 hr by liquid scintillation counting
Please express pKi as -log10 of the molar concentration.

Prompt: What does the data say about its pKi? Entry: `O=C(/C=C/C=C/C=C/c1cccs1)N1C=CCCC1`
Response: 4.94

Prompt: What does the data say about its pKi? Entry: `O=C(/C=C/C=C/C=C/c1cccs1)N1CCCCC1`
Response: 5.10

Prompt: What does the data say about its pKi? Entry: `CC(C)CC(=O)OC/C=C\CCNC(=O)/C=C/C=C/C=C/c1cccs1`
Response: 4.96

Prompt: What does the data say about its pKi? Entry: `CC(C)CCNC(=O)/C=C/C=C/C=C/c1cccs1`
Response: 4.58

Prompt: What does the data say about its pKi? Entry: `CCCCCCCCC/C=C/C=C/C(=O)N1CCCCC1`
Response: 5.19

Prompt: What does the data say about its pKi? Entry: `COc1cc([C@@H]2Oc3c(OC)cc(/C=C/C=O)cc3[C@H]2COC(=O)CC(C)C)ccc1O`
Response: 5.42

Prompt: What does the data say about its pKi? Entry: `CCCCC/C=C\CC/C=C/C=C/C(=O)NCC(C)C`
Response: 5.11

Prompt: What does the data say about its pKi? Entry: `CC(C)CNC(=O)/C=C/C=C/C=C/c1cccs1`
Response: 4.59

Prompt: What does the data say about its pKi? Entry: `CCCCCCC/C=C/C=C/C(=O)NCC(C)C`
Response: 4.37

Prompt: What does the data say about its pKi? Entry: `CCCCCCCCC/C=C/C=C/C(=O)NCC(C)C`
Response: 4.65

Prompt: What does the data say about its pKi? Entry: `CCCCC/C=C\CC/C=C/C=C/C(=O)N1CCCCC1`
Response: 5.42

====

# Tgt: UniProt:P42866
pKi: −log10 of the molar value.
The threshold is inclusive: pKi of exactly 5 counts as Met; values below receive Not met.

Prompt: Has `O=C(/C=C/C=C/C=C/c1cccs1)N1C=CCCC1` a recorded pKi greater than or equal to 5?
Response: Not met

Prompt: Has `CC(C)CNC(=O)/C=C/C=C/C=C/c1cccs1` a recorded pKi greater than or equal to 5?
Response: Not met

Prompt: Has `CCCCCCCCC/C=C/C=C/C(=O)N1CCCCC1` a recorded pKi greater than or equal to 5?
Response: Met

Prompt: Has C=CC1OC1/C=C/C#CC#CC#CC (stereo not drawn) a recorded pKi greater than or equal to 5?
Response: Not met

====

# Species: Mus musculus
# Assay comment: Selectivity ratio of Ki for delta opioid receptor in CD1 mouse brain membranes to Ki for mu opioid receptor in CD1 mouse brain membranes
# Format: cell membranes
// NB: equality with 0.6 counts as False; only Ratio Ki strictly below is True

Prompt: Strictly below 0.6 in Ratio Ki? `CC(C)CNC(=O)/C=C/C=C/C=C/c1cccs1`
Response: True

Prompt: Strictly below 0.6 in Ratio Ki? `CCCCCCC/C=C/C=C/C(=O)NCC(C)C`
Response: False

Prompt: Strictly below 0.6 in Ratio Ki? `COc1cc([C@@H]2Oc3c(OC)cc(/C=C/C=O)cc3[C@H]2COC(=O)CC(C)C)ccc1O`
Response: True

Prompt: Strictly below 0.6 in Ratio Ki? `CCCCCCCCC/C=C/C=C/C(=O)NCC(C)C`
Response: True

Prompt: Strictly below 0.6 in Ratio Ki? `O=C(/C=C/C=C/C=C/c1cccs1)N1C=CCCC1`
Response: True

Prompt: Strictly below 0.6 in Ratio Ki? `CC(C)CC(=O)OC/C=C\CCNC(=O)/C=C/C=C/C=C/c1cccs1`
Response: True

Prompt: Strictly below 0.6 in Ratio Ki? `O=C(/C=C/C=C/C=C/c1cccs1)N1CCCCC1`
Response: False

Prompt: Strictly below 0.6 in Ratio Ki? `CCCCCCCCC/C=C/C=C/C(=O)N1CCCCC1`
Response: False

Prompt: Strictly below 0.6 in Ratio Ki? `CC(C)CCNC(=O)/C=C/C=C/C=C/c1cccs1`
Response: False

Prompt: Strictly below 0.6 in Ratio Ki? `CCCCC/C=C\CC/C=C/C=C/C(=O)NCC(C)C`
Response: False

Prompt: Strictly below 0.6 in Ratio Ki? `CCCCC/C=C\CC/C=C/C=C/C(=O)N1CCCCC1`
Response: True
